System: A549-ACTB-RAB5A
PROCEDURE_DETAILS: phenotypically active (imaging signature differs from DMSO and reproducible) at any of 0.3-9 uM (binary (1 = active, 0 = inactive)); higher = active
CONDITION_INFO: treatment time: 24 h
Counter-ions that a name gives are not always drawn.
MEASUREMENT_NAME: phenotypically active
Answers are plain numbers.

Consider the following illustrative entries.
COMPOUND	phenotypically active
Cc1ccc2nc(NCCN)c3ncc(C)n3c2c1	1
CN(C)CC/C=C1\c2ccccc2COc2ccc(CC(=O)O)cc21	0
CCOC(=O)CCNc1cc(N2CCc3ccccc3CC2)nc(-c2ccccn2)n1	1
CC(C)c1ccc(CC(=O)N2CCC[C@@H](c3cccc(OC(C)(C)C(=O)O)c3)C2)cc1	0

Please give phenotypically active, item by item, for the list that follows.
1. Cc1noc(C)c1-c1ccc2c(c1)nc(CCc1ccc(OCCCN(C)C)cc1)n2CCN1CCOCC1
2. CCN(CC)CCNC(=O)c1cc(Cl)c(N)cc1OC [metoclopramide]
3. COCC(=O)N[C@@H](Cc1ccc(-c2cc(Cl)cc(Cl)c2)cc1)[C@H](O)[C@@H](O)C(=O)O
4. C[C@@H]1O[C@@H](OC[C@H]2O[C@@H](Oc3c(-c4ccc(O)c(O)c4)oc4cc(O)cc(O)c4c3=O)[C@H](O)[C@@H](O)[C@@H]2O)[C@H](O)[C@H](O)[C@H]1O [Quercétine-3-rutinoside]
5. CNCCCC12CCC(c3ccccc31)c1ccccc12
6. O=C1CN2Cc3c(ccc(Cl)c3Cl)N=C2N1 [Anagrelide hydrochloride]
7. O=[N+]([O-])c1cc([N+](=O)[O-])c(/C=C/c2ccc(Cl)c(Cl)c2)cc1/C=C/c1ccc(Cl)c(Cl)c1

Resp:
1: 1; 2: 0; 3: 0; 4: 1; 5: 1; 6: 0; 7: 0

* * *

Test system: A549-CANX-COX4
PROCEDURE_DETAILS: phenotypically active (imaging signature differs from DMSO and reproducible) at any of 0.3-9 uM (binary (1 = active, 0 = inactive)); higher = active
CONDITION_INFO: treatment time: 24 h
Please state which outcome applies, choosing from t for active, f for inactive

Some solved entries appear below for comparison.
                                   molecule   tested_system  assigned_category
0  C[N+](C)(C)CCOC(N)=O [Carbamoylcholine chloride]  A549-CANX-COX4                  f
1  CC(C)c1nc(CN(C)C(=O)N[C@H](C(=O)N[C@@H](Cc2ccccc2)C[C@H](O)[C@H](Cc2ccccc2)NC(=O)OCc2cncs2)C(C)C)cs1 [ritonavir]  A549-CANX-COX4                  f
2  CNCC[C@@H](Oc1ccccc1C)c1ccccc1 [atomoxetine]  A549-CANX-COX4                  f
3  CC(C)CNc1nc(-c2cccc3ncccc23)cn2c(-c3ccc(C(=O)NC4CC4)cc3)cnc12  A549-CANX-COX4                  t
4  N#Cc1cccc(-c2c[nH]c3ncnc(N4CCOCC4)c23)c1  A549-CANX-COX4                  f
5  Nc1ccn([C@@H]2O[C@H](CO)[C@@H](O)C2(F)F)c(=O)n1 [gemcitabine]  A549-CANX-COX4                  t
6  S=C(S)N1CCCC1 [Pyrrolidinedithiocarbamate ammonium]  A549-CANX-COX4                  t

Now for a further molecule.
Req: I'd appreciate the recorded outcome for C#C[C@]1(OC(C)=O)CC[C@H]2[C@@H]3CCC4=C[C@@H](OC(C)=O)CC[C@@H]4[C@H]3CC[C@@]21C [ethynodiol diacetate] from this test.
Resp: f

* * *

System: A549-ACTB-RAB5A
PROCEDURE_DETAILS: lowest phenotypically active concentration; higher = less potent
CONDITION_INFO: treatment time: 24 h
Structures can show the parent of a compound that is named as a salt.
MEASUREMENT_NAME: lowest phenotypically active concentration (µM)
Give bare numbers, in µM.

Give lowest phenotypically active concentration for each listed item.
1. COc1ccccc1C(=O)Nc1cc2c(cc1N1CCCC1)n(C)c(=O)n2C
2. C=CC(=O)N1CCC[C@@H](n2nc(-c3cccc(C(=O)Nc4ccc(C(C)C)c(C)c4)c3)c3c(N)ncnc32)C1
3. O=C(O)Cc1cccc(OCCCN(Cc2cccc(C(F)(F)F)c2Cl)CC(c2ccccc2)c2ccccc2)c1 [GW 3965 hydrochloride]
4. CCCCOc1cc(C(=O)NCCN(CC)CC)c2ccccc2n1
5. CCc1cc(-c2n[nH]c(C)c2-c2ccc3c(c2)OCCO3)c(O)cc1O
6. COc1ccc(CNC(=O)Nc2ncc([N+](=O)[O-])s2)cc1
7. CC(C)(C)c1ccc(S(=O)(=O)/C=C/C#N)cc1

Resp:
9
3
9
3
3
9
9

Hi team, please reply with lowest phenotypically active concentration for each item in this list.
1. CC(C)C(=O)SCCCCCCC(=O)Nc1nc(-c2ccccc2)cs1
2. O=C1c2c(O)cccc2Cc2cccc(O)c21
3. O=C(Nc1ccncc1)c1cc([N+](=O)[O-])ccc1Cl
4. CC(C)n1nc(-c2cc3cc(O)ccc3[nH]2)c2c(N)ncnc21

Resp:
1
9
3
1

State recorded lowest phenotypically active concentration for all listed compounds.
1. COc1cc(N2CCN(C)CC2)ccc1Nc1nccc(-c2cn(C)c3cnccc23)n1
2. N#C/C(=C/c1ccc(O)c(O)c1)C(=O)NCCCCc1ccccc1
3. CC(CN(C)C)CN1c2ccccc2CCc2ccccc21 (stereo not given)

Resp:
1: 1; 2: 9; 3: 9

List the reported lowest phenotypically active concentration of each compound below.
1. CCCNCC(O)COc1ccccc1C(=O)CCc1ccccc1 (stereo not given)
2. COc1ccc(N2C(=O)CSC2c2cccc(Br)c2)c(OC)c1 (stereo not given)

Resp:
1: 9; 2: 3

* * *

Could you please report measured lowest phenotypically active concentration for the items listed next?
System: HepG2-ACTB-RAB5A
PROCEDURE_DETAILS: lowest phenotypically active concentration; higher = less potent
CONDITION_INFO: treatment time: 24 h
Numbers only, in µM.

For orientation, consider the following solved cases.
In [3]: df
Out[3]:
                                   molecule  observed_measurement
0               O=C1c2ccccc2-c2nc3nonc3nc21                     3
1             Cc1ccc2nc(NCCN)c3ncc(C)n3c2c1                     3
2  CNCCCC12CCC(c3ccccc31)c1ccccc12 [maprotiline]                     9
3  O=C(Nc1ccc(-c2ccnc(Nc3ccc(N4CCOCC4)cc3)n2)cc1)[C@@H]1CCCN1                     3
4  CCN1CCN(c2cc(-c3ccc(F)cc3)c3c(n2)CCCCCC3)CC1 [blonanserin]                     9

Next molecule, lowest phenotypically active concentration to be filled in.
Req: Entry Clc1ccccc1C(c1ccccc1)(c1ccccc1)n1ccnc1 [Clotrimazole] needs its lowest phenotypically active concentration filled in; supply it.
Resp: 9

* * *

Record form. Attribute: lowest phenotypically active concentration. Fill in for each entry.
System: A549-GM130-SQSTM1
PROCEDURE_DETAILS: lowest phenotypically active concentration; higher = less potent
CONDITION_INFO: treatment time: 24 h
Where a name gives a salt, the structure may show the parent alone.

Recorded lowest phenotypically active concentration, per entry:
                                   compound  observed_measurement
0    O=C(Nc1ccccc1)c1cc([N+](=O)[O-])ccc1Cl                  9 µM
1  CN(C)CC(O)Cn1c2ccc(Br)cc2c2cc(Br)ccc21 (stereo not given) [Wiskostatin]                  1 µM
2  CC1=C(/C=C/C(C)=C\C=C\C(C)=C\C(=O)O)C(C)(C)CCC1 [tretinoin]                  3 µM
3  Cc1cc(Nc2cc(N3CCN(C)CC3)nc(Sc3ccc(NC(=O)C4CC4)cc3)n2)[nH]n1              ≤ 0.3 µM

Could you now consider this next compound?
Req: State its lowest phenotypically active concentration for this compound: O=C([C@@H](Cc1cccc(C(F)(F)F)c1)NS(=O)(=O)c1cc(F)c2c(c1)CCNC2)N1CCCC1 [(R)-PFI 2 hydrochloride]
Resp: 9 µM

* * *

System: WPMY1-CANX-COX4
PROCEDURE_DETAILS: phenotypically active (imaging signature differs from DMSO and reproducible) at any of 0.3-9 uM (binary (1 = active, 0 = inactive)); higher = active
CONDITION_INFO: treatment time: 24 h
Counter-ions that a name gives are not always drawn.
Your reply should match one of these outcome classes. active, inactive

Known results for molecules:
MOLECULE	ASSIGNED_CATEGORY
C[C@@H]1O[C@@H](OC[C@H]2O[C@@H](Oc3c(-c4ccc(O)c(O)c4)oc4cc(O)cc(O)c4c3=O)[C@H](O)[C@@H](O)[C@@H]2O)[C@H](O)[C@H](O)[C@H]1O [Quercétine-3-rutinoside]	inactive
COc1ccc2c3c([nH]c2c1)[C@H]1C[C@H]2[C@H](C[C@@H](O)[C@H](OC)[C@H]2C(=O)O)CN1CC3 [Reserpinic acid hydrochloride]	inactive
Cc1ccc(-c2csc3ncnc(SCCC(=O)O)c23)cc1	inactive
O=C(c1ccc(C(=O)N2CCC(N3CCCC3)CC2)c(Nc2ccccc2)c1)N1CCC(N2CCCC2)CC1	inactive

// next entry
Req: Check the results log: what was the call for O=C(O)[C@]1(Cc2cccc(Nc3nccs3)n2)CC[C@@H](Oc2cccc(Cl)c2F)CC1 ?
Resp: active
